Data provenance: patent US20240067729A1

Consider the following binders; for each one, report its pIC50.
- tested-system: T1, human PD-L1 Fc fusion (hPD-L1-Fc) (human, UniProt Q9NZQ7 19-238, limits assumed)
- T1 construct: not shown: Fc part
- T1 sequence (Q9NZQ7 19-238 limits assumed): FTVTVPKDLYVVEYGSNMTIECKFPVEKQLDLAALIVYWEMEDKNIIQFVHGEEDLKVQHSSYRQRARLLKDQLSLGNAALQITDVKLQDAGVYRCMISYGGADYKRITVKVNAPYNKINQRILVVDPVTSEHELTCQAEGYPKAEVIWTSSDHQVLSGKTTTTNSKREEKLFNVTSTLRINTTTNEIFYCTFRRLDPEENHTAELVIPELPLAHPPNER
- protocol-details: blocking ELISA: antibody titrated + biotin-hPD-1-Fc 1 ug/mL on coated hPD-L1-Fc
Answers are plain numbers, as −log10 of the molar value.

PAL759 (hybridoma 13F1.B7) (antibody, V domains shown, Mouse IgG purified from hybridoma supernatant) VH: EVQLQESGAELVRPGASVKLSCKASGYSFTDYYINWVKQRPGQGLEWIARIYPGSGNTYYNEKFKGKATLTAEKSSITAYMQLSSLTSEDSAVYFCARSYYYGSSYLFDYWGQGTTLTVSS VL: DILLTQSPAILSVSPGERVSFSCRASQSIGTSIHWYQQRTNGSPRLLIKYASESISGIPSRFSGSGSGTDFTLSINSVESEDIGDYYCQQSNNWPFTFGSGTKLEIK : 8.33
PAL769 (hybridoma 2C1.C8) (antibody, V domains shown, Mouse IgG purified from hybridoma supernatant) VH: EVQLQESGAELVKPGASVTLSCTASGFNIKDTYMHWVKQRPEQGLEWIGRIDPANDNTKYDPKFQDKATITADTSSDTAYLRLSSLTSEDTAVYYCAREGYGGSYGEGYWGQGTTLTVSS VL: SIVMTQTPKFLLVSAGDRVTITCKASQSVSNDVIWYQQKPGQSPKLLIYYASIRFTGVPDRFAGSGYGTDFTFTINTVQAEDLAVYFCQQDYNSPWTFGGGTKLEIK : 9.29

Now let's try a different one.
Consider the binder shown here: PAL785 (hybridoma 16G1.A5) (antibody, V domains shown, Mouse IgG purified from hybridoma supernatant) VH: EVQLQESGPELVKPGTSVKMSCKASGYTFTSYVMHWVKQRPGQGLEWIGYINPYNDGSKYNEKFKGKATLTSDTSSSTAYMELSSLTSEDSAVYYCAKQTLDFWGQGTSVTVST VL: DIVLTQSPASLAVSLGQRATISCRASESVEFYGTTLMQWYQQKPGQPPKLLIYAASNVESGVPARFSGSGSGTDFSLNIHPVEEGDIGMYFCQQSRKVPYTFGGGTKLEIK What is its recorded pIC50? 9.17
